# System: L1210
# Assay Protocol: In vitro anticancer MTT experiment
# Type: cell-based
# Condition Notes: Mus musculus, concentration 5 ug/ml, 48 h or 72 h, read-out: inhibition ratio L1210
In this section, each of the compounds is paired with its reported inhibition at 5 µg/mL.
Numbers only; they are read as %.

Would you please look over these solved cases?
Prompt line: Param readout= inhibition at 5 µg/mL; system= L1210; entry= O=C1/C(=C/Br)CSc2ccc(Cl)cc21 [Compound 10] ; returns value.
Response line: 84.4

Prompt line: Try O=C1/C(=C/Cl)SCc2ccc(F)cc21 [Compound 15] next.
Response line: 80.9

Prompt line: Try Cc1cc2c(cc1F)SC/C(=C\Cl)C2=O [Compound 6] next.
Response line: 76.9

Prompt line: Try Cc1cc2c(cc1F)CS/C(=C\Br)C2=O [Compound 16] next.
Response line: 85.9

Next, consider the following compound.
Prompt line: Param readout= inhibition at 5 µg/mL; system= L1210; entry= Cc1ccc2c(c1)C(=O)/C(=C/Cl)CS2 [Compound 5] ; returns value.
Response line: 87.6

----------
# Tested on: L1210
# Assay Protocol: In vitro anticancer MTT experiment
# Format: cell-based
# Condition Notes: Mus musculus, concentration 5 ug/ml, 48 h or 72 h, read-out: inhibition ratio L1210
In this section, each of the compounds is paired with its reported inhibition at 5 µg/mL.
Numbers only; they are read as %.

Prompt line: Which inhibition at 5 µg/mL value is on record for `O=C1/C(=C\Cl)CSc2ccc(Cl)cc21` ?
Response line: 78.4

***
Prompt line: Which inhibition at 5 µg/mL value is on record for Cc1ccc(SC2/C(=C/Cl)CSc3ccc(C)cc32)cc1 (centres unmarked) ?
Response line: 33.6

Prompt line: Try `Cc1ccc2c(c1)C(=O)CSC2` next.
Response line: 85.6

Prompt line: Try `Cc1cc2c(cc1F)SC/C(=C\Br)C2=O` next.
Response line: 89.5

Prompt line: Try `O=C1/C(=C/Cl)CSc2sccc21` next.
Response line: 76.4

----------
# Tested on: HTB-131MDA-MB-453
# Assay Protocol: In vitro anticancer MTT experiment
# Type: cell-based
# Condition Notes: concentration 5 ug/ml, 48 h or 72 h, read-out: inhibition ratio HTB-131MDA-MB-453
Readout: inhibition at 5 µg/mL (%)
Numbers only; they are read as %.

Would you please look over these solved cases?
Prompt line: Which inhibition at 5 µg/mL value is on record for `O=C1/C(=C/Cl)CSc2ccc(Cl)cc21` ?
Response line: 57.6

Prompt line: Try `Cc1ccc2c(c1)C(=O)/C(=C/Br)CS2` next.
Response line: 47.3

Prompt line: Try `O=C1/C(=C\Cl)CSc2ccc(F)cc21` next.
Response line: 55.9

Prompt line: Try `O=C1/C(=C/Br)CSc2ccc(Cl)cc21` next.
Response line: 53.5

***
Prompt line: Which inhibition at 5 µg/mL value is on record for `Cc1cc2c(cc1F)SC/C(=C\Br)C2=O` ?
Response line: 56.7

----------
# Tested on: C. glabrata
Mark Criterion met only when MIC stays strictly below 30 µg/mL. Values equal to the cut-off are Criterion not met.

Prompt line: Identify whether the molecule O=C1/C(=C\Cl)SCc2ccccc21 [Compound 26] records MIC below 30 µg/mL.
Response line: Criterion met

***
Prompt line: Identify whether the molecule Cc1cc2c(cc1F)SC/C(=C\Cl)C2=O [Compound 6] records MIC below 30 µg/mL.
Response line: Criterion met

Prompt line: Try Cc1cc2c(cc1F)SC/C(=C\Br)C2=O [Compound 9] next.
Response line: Criterion not met

Prompt line: Try Cc1ccc2c(c1)C(O)/C(=C\Cl)CS2 (stereo not drawn) [Compound 25] next.
Response line: Criterion met

Prompt line: Try Cc1ccc2c(c1)C(=O)/C(=C/Cl)CS2 [Compound 5] next.
Response line: Criterion met

Prompt line: Try O=C1/C(=C/Cl)SCc2ccc(F)cc21 [Compound 15] next.
Response line: Criterion met

Prompt line: Try Cc1ccc2c(c1)C(=O)/C(=C\O)CS2 [Compound 2] next.
Response line: Criterion not met

Prompt line: Try O=C1/C(=C\Cl)CSc2sccc21 [Compound 24] next.
Response line: Criterion met

Prompt line: Try Cc1ccc2c(c1)C(=O)CCS2 [Compound 1] next.
Response line: Criterion not met
